# MEASURED_TARGET: USP8 (Homo sapiens)
# Construct: (1-1118); purchased Ubiquigent 64-0053-050
# Sequence (P40818 1-1118): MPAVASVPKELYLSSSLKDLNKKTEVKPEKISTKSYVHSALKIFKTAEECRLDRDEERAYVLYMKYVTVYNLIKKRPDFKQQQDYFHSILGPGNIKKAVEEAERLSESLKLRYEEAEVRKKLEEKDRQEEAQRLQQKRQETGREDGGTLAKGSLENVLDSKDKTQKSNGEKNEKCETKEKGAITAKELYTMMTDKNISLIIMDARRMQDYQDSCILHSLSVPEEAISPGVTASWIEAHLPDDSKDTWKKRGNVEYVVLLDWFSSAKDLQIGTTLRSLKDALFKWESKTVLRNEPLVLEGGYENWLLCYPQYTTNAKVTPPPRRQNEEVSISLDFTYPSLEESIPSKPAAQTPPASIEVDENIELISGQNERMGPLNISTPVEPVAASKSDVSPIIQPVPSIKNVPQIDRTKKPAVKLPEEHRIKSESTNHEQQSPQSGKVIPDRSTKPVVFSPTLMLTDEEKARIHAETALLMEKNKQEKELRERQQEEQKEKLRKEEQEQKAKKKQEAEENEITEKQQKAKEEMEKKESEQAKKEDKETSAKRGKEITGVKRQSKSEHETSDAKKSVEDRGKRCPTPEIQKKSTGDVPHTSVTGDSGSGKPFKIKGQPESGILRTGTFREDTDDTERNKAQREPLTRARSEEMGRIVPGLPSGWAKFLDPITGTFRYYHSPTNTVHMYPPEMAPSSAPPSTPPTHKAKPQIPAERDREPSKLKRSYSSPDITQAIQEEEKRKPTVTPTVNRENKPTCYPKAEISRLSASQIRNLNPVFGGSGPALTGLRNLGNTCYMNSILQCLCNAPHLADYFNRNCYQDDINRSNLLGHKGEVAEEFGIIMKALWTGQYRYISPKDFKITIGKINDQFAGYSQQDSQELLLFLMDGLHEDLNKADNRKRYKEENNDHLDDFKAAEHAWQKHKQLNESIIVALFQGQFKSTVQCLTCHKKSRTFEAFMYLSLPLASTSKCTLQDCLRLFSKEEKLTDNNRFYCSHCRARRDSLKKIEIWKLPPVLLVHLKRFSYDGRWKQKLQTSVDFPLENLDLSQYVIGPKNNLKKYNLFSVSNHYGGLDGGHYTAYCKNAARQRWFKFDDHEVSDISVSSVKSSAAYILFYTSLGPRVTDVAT
# TEST_DESCRIPTION: High-throughput screening, Ub-RhoMP, single dose 1.25 µM
# Assay type: biochemical
# STATED_CONDITIONS: individual amine building block (plate NCN-5)
ENDPOINT: BB %inhibition USP8 (%)

[
  {
    "MOLECULE": "N#CN1CC[C@@H](N)C1 [BB1]",
    "RECORDED_RESULT": 9.1
  },
  {
    "MOLECULE": "N#CN1CCC(n2cc(N)cn2)CC1 [BB16]",
    "RECORDED_RESULT": -3.5
  },
  {
    "MOLECULE": "N#CN1CCC[C@@H](N)C1 [BB4]",
    "RECORDED_RESULT": 5.3
  },
  {
    "MOLECULE": "N#CN1CC[C@H](N)C1 [BB3]",
    "RECORDED_RESULT": 3.6
  },
  {
    "MOLECULE": "N#CN1CC[C@@H](NC(=O)c2ccc(CN)cc2)C1 [BB9]",
    "RECORDED_RESULT": 20.0
  },
  {
    "MOLECULE": "N#CN1C[C@H]2C[C@@H](N)C[C@H]2C1 [BB6]",
    "RECORDED_RESULT": -1.3
  },
  {
    "MOLECULE": "N#CN1C[C@H]2C[C@H](N)C[C@H]2C1 [BB7]",
    "RECORDED_RESULT": -1.7
  },
  {
    "MOLECULE": "N#CN1C[C@@H]2C[C@H]1CN2 [BB12]",
    "RECORDED_RESULT": -2.5
  },
  {
    "MOLECULE": "N#CN1CC[C@H](CN)C1 [BB11]",
    "RECORDED_RESULT": -2.4
  }
]

====

Reported inhibition at 1.25 µM is given for each of the following compounds.
# MEASURED_TARGET: mUSP18 (Mus musculus, UniProt Q9WTV6)
# Construct: (46-368); His-tag (N); made in house
# Sequence (Q9WTV6 46-368): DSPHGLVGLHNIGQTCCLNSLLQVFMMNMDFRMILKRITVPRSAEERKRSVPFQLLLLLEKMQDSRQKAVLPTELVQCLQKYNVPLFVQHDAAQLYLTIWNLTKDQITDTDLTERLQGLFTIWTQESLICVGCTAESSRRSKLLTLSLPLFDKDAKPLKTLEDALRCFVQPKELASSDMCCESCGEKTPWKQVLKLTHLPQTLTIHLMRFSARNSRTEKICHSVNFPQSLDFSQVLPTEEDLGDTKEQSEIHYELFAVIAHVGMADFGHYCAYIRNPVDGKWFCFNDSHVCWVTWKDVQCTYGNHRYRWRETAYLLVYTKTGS
# TEST_DESCRIPTION: High-throughput screening, ISG15ct-RhoMP, single dose 1.25 µM
# Type: biochemical, murine
# STATED_CONDITIONS: mUSP18 %inhibition; carboxylic acid (CA) building block alone; read-out: %inh CA only

[
  {
    "COMPOUND": "Cc1nc(-c2ncccn2)sc1C(=O)O",
    "inhibition at 1.25 µM / %": 2.85
  },
  {
    "COMPOUND": "O=C(O)c1ccc(=O)n(Cc2ccccc2)n1",
    "inhibition at 1.25 µM / %": 14.5
  },
  {
    "COMPOUND": "O=C(O)c1csc(C2CC2)n1",
    "inhibition at 1.25 µM / %": 9.58
  },
  {
    "COMPOUND": "Cn1nccc1[1C@@H]1C[1C@H]1C(=O)O",
    "inhibition at 1.25 µM / %": -4.36
  },
  {
    "COMPOUND": "CNc1ccc(C(=O)O)cc1",
    "inhibition at 1.25 µM / %": -7.36
  },
  {
    "COMPOUND": "O=C(O)c1cnc(COc2ccccc2)s1",
    "inhibition at 1.25 µM / %": 0.13
  },
  {
    "COMPOUND": "O=C(NNc1ccc(C(=O)O)cc1)OCC1c2ccccc2-c2ccccc21",
    "inhibition at 1.25 µM / %": 9.05
  },
  {
    "COMPOUND": "O=C(O)c1nccc2ccccc12",
    "inhibition at 1.25 µM / %": -2.62
  },
  {
    "COMPOUND": "Cn1cc(-c2ccc(C(=O)O)o2)cn1",
    "inhibition at 1.25 µM / %": -4.51
  },
  {
    "COMPOUND": "O=C(O)CN1C(=O)c2ccccc2C1=O",
    "inhibition at 1.25 µM / %": 0.06
  },
  {
    "COMPOUND": "O=C(O)CN1CCOCC1",
    "inhibition at 1.25 µM / %": -1.88
  },
  {
    "COMPOUND": "CC(=O)CCCCC(=O)O",
    "inhibition at 1.25 µM / %": -5.09
  },
  {
    "COMPOUND": "O=C(O)c1cc(-c2ccncc2)on1",
    "inhibition at 1.25 µM / %": -3.88
  },
  {
    "COMPOUND": "O=C(O)c1noc(Cc2ccccc2F)n1",
    "inhibition at 1.25 µM / %": 10.7
  },
  {
    "COMPOUND": "O=C(O)c1cn(CC2CCCO2)nn1 (stereo not drawn)",
    "inhibition at 1.25 µM / %": 7.51
  },
  {
    "COMPOUND": "O=C(O)CCCCCBr",
    "inhibition at 1.25 µM / %": 7.25
  },
  {
    "COMPOUND": "O=C(O)c1cccc2cc3ccccc3cc12",
    "inhibition at 1.25 µM / %": -0.58
  },
  {
    "COMPOUND": "O=C(O)c1sc(N2CCCC2)nc1Cl",
    "inhibition at 1.25 µM / %": 3.86
  },
  {
    "COMPOUND": "O=C(O)c1csc(-c2ccncc2)n1",
    "inhibition at 1.25 µM / %": -1.96
  },
  {
    "COMPOUND": "O=C(O)c1ccc(N2CCCS2(=O)=O)cc1",
    "inhibition at 1.25 µM / %": 1.69
  },
  {
    "COMPOUND": "O=C(O)c1c[nH]nc1-c1cccnc1",
    "inhibition at 1.25 µM / %": 9.15
  },
  {
    "COMPOUND": "Cc1csc(-c2cccc(C(=O)O)c2)n1",
    "inhibition at 1.25 µM / %": -3.85
  },
  {
    "COMPOUND": "O=C(O)c1ccc(-n2ccnc2)nn1",
    "inhibition at 1.25 µM / %": 15.3
  },
  {
    "COMPOUND": "O=C(O)c1cc(-c2ccc(Br)cc2)ns1",
    "inhibition at 1.25 µM / %": 16
  },
  {
    "COMPOUND": "O=C(O)c1cnn(-c2ccc(Br)cc2)c1",
    "inhibition at 1.25 µM / %": -3.17
  },
  {
    "COMPOUND": "CN(C)c1ccc(C(=O)O)cc1",
    "inhibition at 1.25 µM / %": -0.0145
  },
  {
    "COMPOUND": "CCn1nccc1-c1cc(C(=O)O)no1",
    "inhibition at 1.25 µM / %": 0.71
  },
  {
    "COMPOUND": "O=C(O)c1ccc(CNS(=O)(=O)c2ccc(F)c(F)c2F)cc1",
    "inhibition at 1.25 µM / %": 13.6
  },
  {
    "COMPOUND": "Cc1nc(-c2cc(C)n(CCC(=O)O)c2C)cs1",
    "inhibition at 1.25 µM / %": 11.4
  },
  {
    "COMPOUND": "O=C(O)CCN1C(=O)C=CC1=O",
    "inhibition at 1.25 µM / %": 7.63
  },
  {
    "COMPOUND": "O=C(O)c1cccc(S(=O)(=O)Nc2ccc(Cl)cc2)c1",
    "inhibition at 1.25 µM / %": 10
  },
  {
    "COMPOUND": "Cc1ccc(N2CCCC(C(=O)O)C2)nc1 (stereo not drawn)",
    "inhibition at 1.25 µM / %": -2.11
  },
  {
    "COMPOUND": "O=C(O)Cc1cccc(OCc2ccccn2)c1",
    "inhibition at 1.25 µM / %": 1.44
  },
  {
    "COMPOUND": "O=C(O)C1CCCN1C(=O)c1ccncc1 (stereo not drawn)",
    "inhibition at 1.25 µM / %": -0.53
  },
  {
    "COMPOUND": "O=C(O)Cc1ccc([N+](=O)[O-])cc1",
    "inhibition at 1.25 µM / %": -3.85
  },
  {
    "COMPOUND": "O=C(O)c1cccc(S(=O)(=O)NCc2cccs2)c1",
    "inhibition at 1.25 µM / %": 14.6
  },
  {
    "COMPOUND": "O=C(O)c1cnc(Cc2ccc(F)cc2)s1",
    "inhibition at 1.25 µM / %": -5.77
  },
  {
    "COMPOUND": "CC(C)(C)OC(=O)N1CC[C@H](C(=O)O)C1",
    "inhibition at 1.25 µM / %": -11.3
  },
  {
    "COMPOUND": "Cc1cc(C(=O)O)c(C)n1-c1ccon1",
    "inhibition at 1.25 µM / %": 6.76
  },
  {
    "COMPOUND": "CCS(=O)(=O)N1CCC(C(=O)O)(c2ccccc2)CC1",
    "inhibition at 1.25 µM / %": 19.5
  },
  {
    "COMPOUND": "CCn1cc([1C@@H]2OCCC[1C@H]2C(=O)O)cn1",
    "inhibition at 1.25 µM / %": 8.86
  },
  {
    "COMPOUND": "O=C(O)c1cn[nH]c1C1CC1",
    "inhibition at 1.25 µM / %": -3.97
  },
  {
    "COMPOUND": "O=C(O)c1ccc(S(=O)(=O)Nc2cccc(Cl)c2F)o1",
    "inhibition at 1.25 µM / %": 1.57
  },
  {
    "COMPOUND": "O=C(O)c1ccc(Cl)c(N2CCCS2(=O)=O)c1",
    "inhibition at 1.25 µM / %": 4.15
  },
  {
    "COMPOUND": "O=C(O)C1CCCN(S(=O)(=O)c2cccs2)C1 (stereo not drawn)",
    "inhibition at 1.25 µM / %": 1.66
  },
  {
    "COMPOUND": "O=C(O)Cc1csc(-c2cccs2)n1",
    "inhibition at 1.25 µM / %": 4.78
  },
  {
    "COMPOUND": "O=C(O)c1ccc(CN2CCOCC2)cc1",
    "inhibition at 1.25 µM / %": 12.1
  },
  {
    "COMPOUND": "O=C(O)c1cnoc1-c1ccccc1C(F)(F)F",
    "inhibition at 1.25 µM / %": 6.72
  },
  {
    "COMPOUND": "O=C(O)c1cccnc1-n1cccn1",
    "inhibition at 1.25 µM / %": -3.79
  },
  {
    "COMPOUND": "O=C(O)C1CCN(S(=O)(=O)N2CCCCC2)CC1",
    "inhibition at 1.25 µM / %": -1.04
  },
  {
    "COMPOUND": "O=C(O)Cc1coc(-c2ccccc2)n1",
    "inhibition at 1.25 µM / %": 8.08
  }
]
